Parameter herbicidal effect rating: see the listing below.
- Test system: TRZAWR
- Procedure Details: Preemergence herbicidal evaluation
- Type: in vivo
- Set-up: scale not given here
- Experimental Setup: 0.1250 kg/ha
Test Readout: herbicidal effect rating

1. CN(C)C(=O)c1nsc2ccc(-n3c(=O)cc(C(F)(F)F)n(C)c3=O)cc12 [Compound 329] :: 6.0
2. Cc1nsc2ccc(-n3c(=O)cc(C(F)(F)F)n(C)c3=O)cc12 [Compound 6] :: 8.7
3. Cn1c(C(F)(F)F)cc(=O)n(-c2ccc3snc(-c4ccccc4)c3c2)c1=O [Compound 4] :: 7.0
4. O=C1C2=C(CCCC2)C(=O)N1c1ccc2snc(-c3ccccc3)c2c1 [A] :: 0.0

----------
- Tested on: GLXMAW
- Procedure Details: Postemergence herbicidal evaluation
- Type: in vivo
- Experimental Setup: 0.2500 kg/ha
herbicidal effect rating overview
Test Readout: herbicidal effect rating

1) O=C1C2=C(CCCC2)C(=O)N1c1ccc2sncc2c1 :: 2.5
2) Cc1nsc2ccc(N3C(=O)C4=C(CCCC4)C3=O)cc12 :: 7.0
3) O=C1C2=C(CCCC2)C(=O)N1c1ccc2snc(-c3ccccc3)c2c1 :: 4.6
4) Cc1nsc2ccc(-n3c(=O)cc(C(F)(F)F)n(C)c3=O)cc12 :: 7.0

----------
- Test system: Lambsquarters, Common, Chenopodium album
- Procedure Details: Postemergence herbicidal evaluation, CHEAL
- Format: in vivo, L.
- Experimental Setup: 0.2500 kg/ha
Test Readout: herbicide rating (0-9)

1. COc1ccc(C)cc1-c1nsc2ccc(-n3c(=O)cc(C(F)(F)F)n(C)c3=O)cc12 :: 9.0
2. Cn1c(C(F)(F)F)cc(=O)n(-c2ccc3snc(-c4ccccc4)c3c2)c1=O :: 9.0
3. COC(=O)C(C)Oc1cc(C)c(C)cc1-c1nsc2ccc(-n3c(=O)cc(C(F)(F)F)n(C)c3=O)cc12 (stereo not drawn) :: 9.0

----------
- Tested on: ECHCG
- Procedure Details: Preemergence herbicidal evaluation
- Format: in vivo
- Design: scale not given here
- Experimental Setup: 0.0620-0.0630 kg/ha
Test Readout: herbicidal effect rating

1) O=C1C2=C(CCCC2)C(=O)N1c1ccc2sncc2c1 :: 0.0
2) Cn1c(C(F)(F)F)cc(=O)n(-c2ccc3snc(-c4ccccc4)c3c2)c1=O :: 9.0
3) O=C1C2=C(CCCC2)C(=O)N1c1ccc2snc(-c3ccccc3)c2c1 :: 0.0
4) Cc1nsc2ccc(N3C(=O)C4=C(CCCC4)C3=O)cc12 :: 0.0
5) CN(C)C(=O)c1nsc2ccc(-n3c(=O)cc(C(F)(F)F)n(C)c3=O)cc12 :: 4.5

----------
- Tested on: CYPIR Rice Flatsedge
- Procedure Details: Postemergence weed control, flooded paddy (Table IV)
- Type: in vivo, Cyperus iria
- Design: scale not given here
- Experimental Setup: 0.1250 kg/ha
A collection of molecules and their measured herbicidal effect rating
Test Readout: herbicidal effect rating

1. COC(=O)COc1ccc(C)cc1-c1noc2ccc(-n3c(=O)cc(C(F)(F)F)n(C)c3=O)c(Cl)c12 [Compound 261] :: 6.0
2. Cn1c(C(F)(F)F)cc(=O)n(-c2ccc3snc(C(=O)C(C)(C)C)c3c2)c1=O [Compound 432] :: 9.0
3. CON(C)C(=O)COc1ccccc1-c1nsc2ccc(-n3c(=O)cc(C(F)(F)F)n(C)c3=O)cc12 [Compound 354] :: 9.0
4. COC(=O)COc1ccc(C)cc1-c1noc2cc(F)c(-n3c(=O)cc(C(F)(F)F)n(C)c3=O)cc12 [Compound 359] :: 9.0
5. CC(C)S(=O)(=O)NC(=O)c1nsc2ccc(-n3c(=O)cc(C(F)(F)F)n(C)c3=O)cc12 [Compound 362] :: 8.0
6. COc1ccc(C)cc1-c1nsc2ccc(-n3c(=O)cc(C(F)(F)F)n(C)c3=O)cc12 [Compound 1] :: 9.0
7. COc1ccc(I)cc1-c1nsc2ccc(-n3c(=O)cc(C(F)(F)F)n(C)c3=O)cc12 [Compound 448] :: 7.0

----------
Reported herbicidal effect rating is given for each of the following compounds.
- System: SAGPY Arrowhead (Pygmaea)
- Procedure Details: Postemergence weed control, flooded paddy (Table IV)
- Assay type: in vivo, Sagittaria pygmaea
- Set-up: scale not given here
- Experimental Setup: 0.1250 kg/ha
Test Readout: herbicidal effect rating

1. COc1ccc(I)cc1-c1nsc2ccc(-n3c(=O)cc(C(F)(F)F)n(C)c3=O)cc12 :: 0.0
2. CC(C)Oc1cccc(-c2nsc3ccc(-n4c(=O)cc(C(F)(F)F)n(C)c4=O)cc23)c1 :: 2.0
3. CCc1ccc(-c2nsc3ccc(-n4c(=O)cc(C(F)(F)F)n(C)c4=O)cc23)cc1 :: 4.0
4. COC(=O)COc1cc(C)ccc1-c1nsc2ccc(-n3c(=O)cc(C(F)(F)F)n(C)c3=O)cc12 :: 4.0
5. Cc1nsc2ccc(-n3c(=O)cc(C(F)(F)F)n(C)c3=O)cc12 :: 6.0
6. CON(C)C(=O)COc1ccccc1-c1nsc2ccc(-n3c(=O)cc(C(F)(F)F)n(C)c3=O)cc12 :: 9.0
7. COC(=O)COc1cc(C)c(C)cc1-c1nsc2ccc(-n3c(=O)cc(C(F)(F)F)n(C)c3=O)cc12 :: 0.0
8. COc1ccc(C)cc1-c1nsc2ccc(-n3c(=O)cc(C(F)(F)F)n(C)c3=O)cc12 :: 0.0
9. CCC(C#N)(CC)c1nsc2ccc(-n3c(=O)cc(C(F)(F)F)n(C)c3=O)cc12 :: 4.0
10. COC(=O)COc1ccc(C)cc1-c1noc2cc(F)c(-n3c(=O)cc(C(F)(F)F)n(C)c3=O)cc12 :: 0.0

----------
- Test system: ECHORC Watergrass (Calif.)
- Procedure Details: Postemergence weed control, flooded paddy (Table IV)
- Type: in vivo, Echinochloa oryzoides
- Parameters: scale not given here
- Experimental Setup: 0.5000 kg/ha
Test Readout: herbicidal effect rating

1. COC(=O)COc1ccc(C)cc1-c1nsc2ccc(-n3c(=O)cc(C(F)(F)F)n(C)c3=O)cc12 :: 9.0
2. COC(=O)C(C)Oc1ccc(C)cc1-c1nsc2ccc(-n3c(=O)cc(C(F)(F)F)n(C)c3=O)cc12 (stereo not drawn) :: 4.0
3. CCc1ccc(-c2nsc3ccc(-n4c(=O)cc(C(F)(F)F)n(C)c4=O)cc23)cc1 :: 9.0
4. Cc1cc(O)c(-c2nsc3ccc(-n4c(=O)cc(C(F)(F)F)n(C)c4=O)cc23)cc1C :: 7.0
5. Cc1nsc2ccc(-n3c(=O)cc(C(F)(F)F)n(C)c3=O)cc12 :: 9.0
6. COC(=O)C(C)Oc1cc(C)c(C)cc1-c1nsc2ccc(-n3c(=O)cc(C(F)(F)F)n(C)c3=O)cc12 (stereo not drawn) :: 9.0
7. Cn1c(C(F)(F)F)cc(=O)n(-c2ccc3snc(-c4ccccc4)c3c2)c1=O :: 9.0
8. COC(=O)COc1cc(C)ccc1-c1nsc2ccc(-n3c(=O)cc(C(F)(F)F)n(C)c3=O)cc12 :: 9.0
9. COC(=O)COc1cc(C)c(C)cc1-c1nsc2ccc(-n3c(=O)cc(C(F)(F)F)n(C)c3=O)cc12 :: 9.0
10. COc1cc(C)ccc1-c1nsc2ccc(-n3c(=O)cc(C(F)(F)F)n(C)c3=O)cc12 :: 9.0
11. COC(=O)C(C)Oc1cc(C)ccc1-c1nsc2ccc(-n3c(=O)cc(C(F)(F)F)n(C)c3=O)cc12 (stereo not drawn) :: 9.0
12. COc1ccc(C)cc1-c1nsc2ccc(-n3c(=O)cc(C(F)(F)F)n(C)c3=O)cc12 :: 9.0

----------
- Tested on: ORYSAT
- Procedure Details: Preemergence herbicidal evaluation
- Type: in vivo, Oryza sativa
- Set-up: scale not given here
- Experimental Setup: 0.0313-0.0320 kg/ha
Test Readout: herbicidal effect rating

1. Cc1nsc2ccc(N3C(=O)C4=C(CCCC4)C3=O)cc12 :: 0.0
2. CN(C)C(=O)c1nsc2ccc(-n3c(=O)cc(C(F)(F)F)n(C)c3=O)cc12 :: 2.5
3. O=C1C2=C(CCCC2)C(=O)N1c1ccc2sncc2c1 :: 1.0
4. Cn1c(C(F)(F)F)cc(=O)n(-c2ccc3snc(-c4ccccc4)c3c2)c1=O :: 7.0

----------
- Tested on: CYPSE Flatsedge
- Procedure Details: Postemergence weed control, flooded paddy (Table IV)
- Format: in vivo, Cyperus serotinus
- Set-up: scale not given here
- Experimental Setup: 0.5000 kg/ha
# strict inequality: herbicidal effect rating < 2 yields satisfied, everything else yields not satisfied

1) COc1ccc(C)cc1-c1nsc2ccc(-n3c(=O)cc(C(F)(F)F)n(C)c3=O)cc12 [Compound 1] :: not satisfied
2) CCc1ccc(-c2nsc3ccc(-n4c(=O)cc(C(F)(F)F)n(C)c4=O)cc23)cc1 [Compound 5] :: satisfied
3) COC(=O)C(C)Oc1cc(C)ccc1-c1nsc2ccc(-n3c(=O)cc(C(F)(F)F)n(C)c3=O)cc12 (stereo not drawn) [Compound 9] :: not satisfied
4) Cn1c(C(F)(F)F)cc(=O)n(-c2ccc3snc(-c4ccccc4)c3c2)c1=O [Compound 4] :: not satisfied
5) COC(=O)C(C)Oc1ccc(C)cc1-c1nsc2ccc(-n3c(=O)cc(C(F)(F)F)n(C)c3=O)cc12 (stereo not drawn) [Compound 3] :: satisfied
6) COc1cc(C)ccc1-c1nsc2ccc(-n3c(=O)cc(C(F)(F)F)n(C)c3=O)cc12 [Compound 7] :: not satisfied
7) COC(=O)COc1cc(C)ccc1-c1nsc2ccc(-n3c(=O)cc(C(F)(F)F)n(C)c3=O)cc12 [Compound 8] :: not satisfied
8) Cc1cc(O)c(-c2nsc3ccc(-n4c(=O)cc(C(F)(F)F)n(C)c4=O)cc23)cc1C [Compound 11] :: satisfied
9) COC(=O)COc1ccc(C)cc1-c1nsc2ccc(-n3c(=O)cc(C(F)(F)F)n(C)c3=O)cc12 [Compound 2] :: satisfied
10) Cc1nsc2ccc(-n3c(=O)cc(C(F)(F)F)n(C)c3=O)cc12 [Compound 6] :: not satisfied
